# experimentalSystem: Histone deacetylase 5 (Homo sapiens)
# Sequence (Q9UQL6 whole entry): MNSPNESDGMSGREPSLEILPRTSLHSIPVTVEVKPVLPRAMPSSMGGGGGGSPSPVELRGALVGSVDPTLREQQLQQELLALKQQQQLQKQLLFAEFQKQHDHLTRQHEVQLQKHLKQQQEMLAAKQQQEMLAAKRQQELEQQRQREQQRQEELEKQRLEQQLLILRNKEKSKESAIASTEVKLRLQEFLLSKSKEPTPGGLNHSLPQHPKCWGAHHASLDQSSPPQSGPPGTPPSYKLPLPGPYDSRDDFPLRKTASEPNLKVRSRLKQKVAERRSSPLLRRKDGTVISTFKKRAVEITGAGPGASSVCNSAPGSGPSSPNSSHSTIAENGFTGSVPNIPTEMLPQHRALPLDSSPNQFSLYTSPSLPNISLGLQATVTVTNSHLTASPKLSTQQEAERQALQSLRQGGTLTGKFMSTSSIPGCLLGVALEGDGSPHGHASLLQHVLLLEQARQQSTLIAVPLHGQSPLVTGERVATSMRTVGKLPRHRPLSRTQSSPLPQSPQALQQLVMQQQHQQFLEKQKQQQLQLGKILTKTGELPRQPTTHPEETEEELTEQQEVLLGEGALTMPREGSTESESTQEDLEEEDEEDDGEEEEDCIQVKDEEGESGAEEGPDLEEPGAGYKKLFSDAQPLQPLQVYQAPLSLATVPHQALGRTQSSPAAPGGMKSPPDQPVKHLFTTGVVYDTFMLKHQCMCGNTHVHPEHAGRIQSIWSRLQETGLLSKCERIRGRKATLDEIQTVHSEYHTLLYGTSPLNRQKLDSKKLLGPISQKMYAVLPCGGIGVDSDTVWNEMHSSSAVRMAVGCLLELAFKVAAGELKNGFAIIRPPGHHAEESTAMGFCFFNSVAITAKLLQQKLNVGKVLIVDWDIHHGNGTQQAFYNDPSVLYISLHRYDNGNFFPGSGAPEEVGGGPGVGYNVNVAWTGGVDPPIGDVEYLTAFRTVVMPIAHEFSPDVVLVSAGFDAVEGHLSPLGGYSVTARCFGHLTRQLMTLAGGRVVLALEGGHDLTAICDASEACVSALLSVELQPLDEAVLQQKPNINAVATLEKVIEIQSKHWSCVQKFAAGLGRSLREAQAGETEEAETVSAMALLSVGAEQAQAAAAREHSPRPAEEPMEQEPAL
# assayContext: read-out: IC50
pIC50: −log10 of the molar value.
metricName: pIC50

INSERT INTO measurements (structuresmilesstring, metricname, datavalue) VALUES
  ('O=C(/C=C/c1ccc(NC(=O)Cc2cccc3ccccc23)cn1)NO', 'pIC50', 5.87);

---

# experimentalSystem: Histone deacetylase 8 (Homo sapiens, UniProt Q9BY41)
# Sequence (Q9BY41 whole entry): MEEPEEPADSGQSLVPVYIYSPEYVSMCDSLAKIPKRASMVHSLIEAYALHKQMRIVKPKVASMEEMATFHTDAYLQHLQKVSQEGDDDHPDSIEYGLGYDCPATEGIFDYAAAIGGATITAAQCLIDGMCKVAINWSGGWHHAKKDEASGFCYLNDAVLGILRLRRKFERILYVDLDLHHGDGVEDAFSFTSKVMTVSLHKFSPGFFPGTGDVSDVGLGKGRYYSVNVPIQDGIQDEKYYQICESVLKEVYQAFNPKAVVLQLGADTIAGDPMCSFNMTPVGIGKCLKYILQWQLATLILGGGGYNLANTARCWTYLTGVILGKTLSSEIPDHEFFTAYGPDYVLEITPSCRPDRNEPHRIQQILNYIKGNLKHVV
pIC50: −log10 of the molar value.
metricName: pIC50

INSERT INTO results (compound, datavalue) VALUES
  ('CC(C)C(C(=O)Nc1ccc(C(=O)NO)nc1)c1ccccc1 (stereo not given)', 6.05),
  ('Nc1ccccc1NC(=O)c1ccc(NC(=O)Cc2ccccc2)cn1', 4.11),
  ('CCC(C(=O)Nc1ccc(/C=C/C(=O)Nc2ccccc2N)nc1)c1ccccc1 (stereo not given)', 4.45),
  ('O=C(NO)c1ccc(NC(=O)C(Cc2ccccc2)c2ccccc2)cn1 (stereo not given)', 5.96),
  ('O=C(Cc1ccccc1)Nc1ccc(C(=O)NO)nc1', 5.96),
  ('CC(C)C(C(=O)Nc1ccc(/C=C/C(=O)Nc2ccccc2N)nc1)c1ccccc1 (stereo not given)', 4.37),
  ('O=C(/C=C/c1ccc(NC(=O)Cc2ccccc2)cn1)NO', 6.74),
  ('CCC(C(=O)Nc1ccc(C(=O)NO)nc1)c1ccccc1 (stereo not given)', 6.02),
  ('O=C(Cc1cccc2ccccc12)Nc1ccc(C(=O)NO)nc1', 5.74),
  ('CC(C)C(C(=O)Nc1ccc(/C=C/C(=O)NO)nc1)c1ccccc1 (stereo not given)', 6.77),
  ('O=C(/C=C/c1ccc(NC(=O)Cc2ccc3ccccc3c2)cn1)NO', 6.00),
  ('Nc1ccccc1NC(=O)c1ccc(NC(=O)Cc2cccc3ccccc23)cn1', 4.01),
  ('Nc1ccccc1NC(=O)/C=C/c1ccc(NC(=O)Cc2ccc3ccccc3c2)cn1', 4.11),
  ('O=C(/C=C/c1ccc(NC(=O)Cc2cccc3ccccc23)cn1)NO', 7.33),
  ('CCC(C(=O)Nc1ccc(/C=C/C(=O)NO)nc1)c1ccccc1 (stereo not given)', 6.98);
